Recorded values, source ChEMBL document CHEMBL2176886.

# Assay protocol: Metabolic stability in human liver microsomes assessed as compound remaining at 1 uM after 60 mins by HPLC-MS analysis
# Assay type: ADME, Microsome
# Measurement conditions: read-out: Stability

{"columns": ["Smiles notation", "remaining at 1 h, 1 µM"],
 "data": [
  ["C=C(C)[C@@H]1CC[C@]2(C(=O)N3CCN(CCCCC(=O)O)CC3)CC[C@]3(C)[C@H](CC[C@@H]4[C@@]5(C)CC[C@H](OC(=O)CC(C)(C)C(=O)O)C(C)(C)[C@@H]5CC[C@]43C)[C@@H]12", "86.2%"]
]}

###

# Tested on: Human immunodeficiency virus 1
# Assay protocol: Antiviral activity against HIV1 NL4-3 infected in human MT4 cells assessed as p24 antigen level after 4 days by ELISA
# Assay type: functional, organism-based
# Measurement conditions: Human immunodeficiency virus 1, NL4-3, MT4, 96 h
Each entry below carries its recorded IC50.
Readout: IC50

{"columns": ["Smiles notation", "Result"],
 "data": [
  ["C=C(C)[C@@H]1CC[C@]2(C(=O)N3CCC(CCCC(=O)N4CCOCC4)CC3)CC[C@]3(C)[C@H](CC[C@@H]4[C@@]5(C)CC[C@H](OC(=O)CC(C)(C)C(=O)O)C(C)(C)[C@@H]5CC[C@]43C)[C@@H]12", "70 nM"],
  ["C=C(C)[C@@H]1CC[C@]2(C(=O)N3CCC(CCCC(=O)NCCCN4CCOCC4)CC3)CC[C@]3(C)[C@H](CC[C@@H]4[C@@]5(C)CC[C@H](OC(=O)CC(C)(C)C(=O)O)C(C)(C)[C@@H]5CC[C@]43C)[C@@H]12", "31 nM"],
  ["C=C(C)[C@@H]1CC[C@]2(C(=O)OCOC)CC[C@]3(C)[C@H](CC[C@@H]4[C@@]5(C)CC[C@H](OC(=O)CC(C)(C)C(=O)O)C(C)(C)[C@@H]5CC[C@]43C)[C@@H]12", "170 nM"]
]}
